target: Serine/threonine-protein kinase PAK 2 (Homo sapiens, UniProt Q13177)
Sequence (Q13177 whole entry): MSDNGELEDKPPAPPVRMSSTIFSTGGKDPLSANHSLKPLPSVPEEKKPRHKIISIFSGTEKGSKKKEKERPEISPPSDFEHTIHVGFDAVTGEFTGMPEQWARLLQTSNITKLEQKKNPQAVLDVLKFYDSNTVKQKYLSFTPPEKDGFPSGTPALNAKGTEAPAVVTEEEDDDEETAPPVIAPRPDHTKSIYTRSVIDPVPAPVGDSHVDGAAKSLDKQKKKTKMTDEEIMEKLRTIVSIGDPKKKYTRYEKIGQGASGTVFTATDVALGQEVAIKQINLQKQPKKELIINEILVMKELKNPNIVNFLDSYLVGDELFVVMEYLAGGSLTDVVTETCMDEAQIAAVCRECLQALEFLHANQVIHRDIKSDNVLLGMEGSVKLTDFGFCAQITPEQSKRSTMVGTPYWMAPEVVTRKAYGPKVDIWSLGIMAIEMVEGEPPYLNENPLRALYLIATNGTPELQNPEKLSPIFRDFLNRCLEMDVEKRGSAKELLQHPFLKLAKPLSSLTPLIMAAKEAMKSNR
Quantity: pIC50
Recall that pIC50 is obtained by taking minus log10 of the concentration measured in molar.

INPUT: Form field: pIC50 recorded for O=C(CCCCCn1c(=O)c(-c2ccc(Cl)cc2Cl)cc2cnc(NC3CC3)nc21)NO with Serine/threonine-protein kinase PAK 2 (Homo sapiens, UniProt Q13177) (enter value)
OUTPUT: 6.72

----------
target: Histone deacetylase 9 (Homo sapiens, UniProt Q9UKV0)
Sequence (Q9UKV0 whole entry): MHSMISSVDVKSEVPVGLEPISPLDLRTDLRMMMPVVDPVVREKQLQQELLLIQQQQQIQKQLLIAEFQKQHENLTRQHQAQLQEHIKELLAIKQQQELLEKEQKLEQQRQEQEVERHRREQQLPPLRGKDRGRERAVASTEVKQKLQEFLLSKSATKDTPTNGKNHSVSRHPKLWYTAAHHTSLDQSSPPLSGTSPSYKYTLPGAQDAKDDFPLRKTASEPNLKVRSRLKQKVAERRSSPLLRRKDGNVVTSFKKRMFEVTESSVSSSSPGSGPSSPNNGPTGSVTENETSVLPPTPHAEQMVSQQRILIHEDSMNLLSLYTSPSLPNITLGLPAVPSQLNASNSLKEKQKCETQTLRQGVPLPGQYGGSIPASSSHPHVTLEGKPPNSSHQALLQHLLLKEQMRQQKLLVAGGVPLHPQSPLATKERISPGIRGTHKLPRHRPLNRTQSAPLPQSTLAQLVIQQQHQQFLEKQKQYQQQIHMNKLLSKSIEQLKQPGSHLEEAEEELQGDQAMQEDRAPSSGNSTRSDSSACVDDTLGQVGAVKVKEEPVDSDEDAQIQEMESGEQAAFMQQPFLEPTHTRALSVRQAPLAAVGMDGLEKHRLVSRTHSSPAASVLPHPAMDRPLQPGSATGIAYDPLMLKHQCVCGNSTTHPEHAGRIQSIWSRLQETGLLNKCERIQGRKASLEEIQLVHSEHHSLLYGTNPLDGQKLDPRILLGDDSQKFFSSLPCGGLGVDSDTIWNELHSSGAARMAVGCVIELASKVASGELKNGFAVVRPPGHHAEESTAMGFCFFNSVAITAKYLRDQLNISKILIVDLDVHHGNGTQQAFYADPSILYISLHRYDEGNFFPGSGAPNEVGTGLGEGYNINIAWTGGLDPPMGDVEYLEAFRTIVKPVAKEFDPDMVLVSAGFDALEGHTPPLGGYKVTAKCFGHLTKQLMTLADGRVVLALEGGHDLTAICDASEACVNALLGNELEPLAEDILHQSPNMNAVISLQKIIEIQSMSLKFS
pIC50: −log10 of the molar value.
Quantity: pIC50

INPUT: Can you look up pIC50 on Histone deacetylase 9 (Homo sapiens, UniProt Q9UKV0) for CC12CC3CC(C)(C1)CC(NC(=O)/C=C/c1ccc(C(=O)NO)cc1)(C3)C2 ?
OUTPUT: < 5.00

Every entry's value here was drawn from ChEMBL document CHEMBL5614372.
